Just for reference, patent US8785463B2 is where these values come from.

- Assay Target: human GPR 119 receptor (Homo sapiens, UniProt Q8TDV5)
- Construct: expressed in transfected cells
- Sequence (Q8TDV5 whole entry): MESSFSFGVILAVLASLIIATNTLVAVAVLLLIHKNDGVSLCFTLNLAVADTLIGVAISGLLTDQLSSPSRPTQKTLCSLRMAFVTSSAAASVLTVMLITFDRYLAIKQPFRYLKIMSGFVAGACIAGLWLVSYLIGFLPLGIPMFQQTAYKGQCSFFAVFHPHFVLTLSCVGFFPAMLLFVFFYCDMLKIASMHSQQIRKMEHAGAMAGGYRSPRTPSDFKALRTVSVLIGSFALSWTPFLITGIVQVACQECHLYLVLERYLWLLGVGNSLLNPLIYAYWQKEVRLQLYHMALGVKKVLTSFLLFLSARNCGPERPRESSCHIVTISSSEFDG
- Experimental Protocol: cAMP assay in stable cell line expressing recombinant human GPR 119 receptor
- Type: cell-based
- Test Parameters: 1 uM compound; DMSO = 1
Answer each item with its documented Fold increase in cyclic AMP with respective to DMSO.
Hi! Could you send only the number? It should be in fold, unit omitted.

stdin: Recorded Fold increase in cyclic AMP with respective to DMSO for `Cc1c(Oc2ccc(/C=C3\SC(=O)NC3=O)cc2)ncnc1OC1CCN(C(=O)OCC(C)C)CC1` with human GPR 119 receptor (Homo sapiens, UniProt Q8TDV5), please?
stdout: 3.28

stdin: Recorded Fold increase in cyclic AMP with respective to DMSO for `CCOC(=O)CN1C(=O)S/C(=C\c2cccc(Oc3ncnc(OC4CCN(C(=O)OC(C)(C)C)CC4)c3C)c2)C1=O` with human GPR 119 receptor (Homo sapiens, UniProt Q8TDV5), please?
stdout: 2.88

stdin: Recorded Fold increase in cyclic AMP with respective to DMSO for `CCc1cnc(N2CCC(Oc3cc(Oc4ccc(/C=C5\SC(=O)NC5=O)cc4)ncn3)CC2)nc1` with human GPR 119 receptor (Homo sapiens, UniProt Q8TDV5), please?
stdout: 3.53

stdin: Recorded Fold increase in cyclic AMP with respective to DMSO for CC(C)COC(=O)N1CCC(Oc2cc(Oc3cccc(/C=C4\SC(=O)NC4=O)c3)ncn2)CC1 [Example 54] with human GPR 119 receptor (Homo sapiens, UniProt Q8TDV5), please?
stdout: 4.11

stdin: Recorded Fold increase in cyclic AMP with respective to DMSO for `CCOC(=O)N1CCC(Oc2ncnc(Oc3ccc(/C=C4\SC(=O)NC4=O)cc3)c2C)CC1` with human GPR 119 receptor (Homo sapiens, UniProt Q8TDV5), please?
stdout: 6.61

stdin: Recorded Fold increase in cyclic AMP with respective to DMSO for `CCOC(=O)N1CCC(Oc2ncnc(Oc3cccc(/C=C4\SC(=O)N(C)C4=O)c3)c2C)CC1` with human GPR 119 receptor (Homo sapiens, UniProt Q8TDV5), please?
stdout: 7.17

stdin: Recorded Fold increase in cyclic AMP with respective to DMSO for `CC(C)(C)OC(=O)N1CCC(Oc2cc(Oc3cccc(/C=C4\SC(=O)NC4=O)c3)ncn2)CC1` with human GPR 119 receptor (Homo sapiens, UniProt Q8TDV5), please?
stdout: 4.24
